- assay-overview: Oral bioavailability study of berberine formulation versus unformulated berberine (berberine concentration in serum)
- Assay type: in vivo, Sprague Dawley rats
- setup-conditions: Sprague Dawley, rat, serum, 100 mg/kg bodyweight of active Berberine; single oral administration; read-out: Oral exposures (AUClast)
measured-property: AUC(0-t) (ng·h/mL)
Output spec: scalar in ng·h/mL, unitless text.

// AUC(0-t) lookup, key: COc1ccc2cc3[n+](cc2c1OC)CCc1cc2c(cc1-3)OCO2
23.7

* * *

- assay-overview: Oral bioavailability study of berberine formulation versus unformulated berberine (berberine concentration in serum)
- Assay type: in vivo, Sprague Dawley rats
- setup-conditions: Sprague Dawley, rat; rats, single oral dose equivalent to 100 mg/kg BW berberine, berberine in serum, 6 animals
measured-property: Cmax (ng/mL)
Output spec: scalar in ng/mL, unitless text.

// Cmax lookup, key: COc1ccc2cc3[n+](cc2c1OC)CCc1cc2c(cc1-3)OCO2
4.2

// provenance: patent US20160015813A1
